System: OVCAR-8
measurement protocol: Growth inhibition of human OVCAR8 cells after 48 hrs by sulforhodamine B assay
Format: functional
run conditions: OVCAR-8, 48 h, read-out: pTGI (converted)
# met = TGI below 40 µM (exclusive); not met = TGI at/above 40 µM

Here are 5 molecules together with their reported answers.
COc1cc(/C=C/c2cc(F)c3c(c2)C[C@@H]2C(C)(C)[C@H](O)CC[C@@]2(C)O3)cc(O)c1C/C=C(\C)CCC=C(C)C	met
COc1cc(/C=C/c2ccc3c(c2)C[C@@H]2C(C)(C)[C@H](O)CC[C@@]2(C)O3)cc(O)c1C/C=C(\C)CCC=C(C)C	not met
COCOc1cc(/C=C/c2cc(C=O)c3c(c2)C[C@@H]2C(C)(C)[C@H](O)CC[C@@]2(C)O3)cc(OC)c1C/C=C(\C)CCC=C(C)C	not met
COc1cc(/C=C/c2cc3c(c(OC)c2)O[C@]2(C)CC[C@@H](O)C(C)(C)[C@H]2C3)cc(O)c1C/C=C(\C)CCC=C(C)C	met
COCOc1cc(/C=C/c2cc(CO)c3c(c2)C[C@@H]2C(C)(C)[C@H](O)CC[C@@]2(C)O3)cc(OC)c1C/C=C(\C)CCC=C(C)C	met

Consider the molecule COc1cc(/C=C/c2cc(O)c3c(c2)C[C@@H]2C(C)(C)[C@H](O)CC[C@@]2(C)O3)cc(O)c1C/C=C(\C)CCC=C(C)C . Is its TGI strictly less than 40 µM?
met

Hello, is TGI of the following molecule strictly smaller than 40 µM? COc1cc(/C=C/c2cc3c(c(SC)c2)O[C@]2(C)CC[C@@H](O)C(C)(C)[C@H]2C3)cc(O)c1C/C=C(\C)CCC=C(C)C
not met
